Molecular target: T7 RNA polymerase (Escherichia phage T7)
Construct: purchased Thermo Fisher Scientific
Sequence (P00573 whole entry): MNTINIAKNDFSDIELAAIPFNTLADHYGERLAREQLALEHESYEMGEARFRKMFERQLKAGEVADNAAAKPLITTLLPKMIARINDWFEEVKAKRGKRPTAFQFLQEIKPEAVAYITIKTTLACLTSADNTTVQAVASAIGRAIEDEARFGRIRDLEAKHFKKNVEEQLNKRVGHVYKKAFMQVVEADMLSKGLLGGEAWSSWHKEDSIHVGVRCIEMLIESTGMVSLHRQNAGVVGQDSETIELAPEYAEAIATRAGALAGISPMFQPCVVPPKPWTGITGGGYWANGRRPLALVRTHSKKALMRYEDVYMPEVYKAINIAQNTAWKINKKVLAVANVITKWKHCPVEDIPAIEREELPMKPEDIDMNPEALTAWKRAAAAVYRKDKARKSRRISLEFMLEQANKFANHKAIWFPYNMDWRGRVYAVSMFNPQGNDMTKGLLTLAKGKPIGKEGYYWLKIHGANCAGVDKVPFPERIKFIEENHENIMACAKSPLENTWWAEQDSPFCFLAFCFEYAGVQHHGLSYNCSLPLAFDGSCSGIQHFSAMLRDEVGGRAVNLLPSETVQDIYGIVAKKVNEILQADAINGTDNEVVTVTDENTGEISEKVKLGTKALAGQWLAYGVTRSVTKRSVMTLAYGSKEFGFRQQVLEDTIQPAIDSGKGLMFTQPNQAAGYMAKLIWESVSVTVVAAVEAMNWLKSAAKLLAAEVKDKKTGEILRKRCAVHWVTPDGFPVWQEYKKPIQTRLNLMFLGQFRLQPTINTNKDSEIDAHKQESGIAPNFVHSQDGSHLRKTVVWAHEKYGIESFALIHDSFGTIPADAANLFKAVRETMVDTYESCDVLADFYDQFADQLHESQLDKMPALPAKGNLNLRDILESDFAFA
Type: biochemical
Details: Table Ex-8; mRNA capped with 15.23 mM cap0 analog, N1-Methyl-pseudouridine; purified with Monarch RNA cleanup kit or Qiagen RNeasy mini kit
Catalogue of compounds with associated Relative peak area Correctly capped RNA
Field format: number, assumed %, no unit text.

See these solved cases before continuing.
compound: C[n+]1cn(CC[S+]([O-])CCP(=O)(O)OP(=O)([O-])OP(=O)(O)OC[C@H]2O[C@@H](n3cnc4c(=O)[nH]c(N)nc43)[C@H](O)[C@@H]2O)c2nc(N)[nH]c(=O)c21 (some centres unmarked) [Phosphonate Variant 5]
Relative peak area Correctly capped RNA / %: 77.1

compound: C[n+]1cn(CCCS(=O)(=O)CCP(=O)(O)OP(=O)([O-])OP(=O)(O)OC[C@H]2O[C@@H](n3cnc4c(=O)[nH]c(N)nc43)[C@H](O)[C@@H]2O)c2nc(N)[nH]c(=O)c21 [Phosphonate Variant 9]
Relative peak area Correctly capped RNA / %: 73.4

compound: C[n+]1cn(CCSCP(=O)(O)OP(=O)([O-])OP(=O)(O)OC[C@H]2O[C@@H](n3cnc4c(=O)[nH]c(N)nc43)[C@H](O)[C@@H]2O)c2nc(N)[nH]c(=O)c21 [Phosphonate Variant 10]
Relative peak area Correctly capped RNA / %: 63.0

compound: C[n+]1cn(CCCOP(=O)(O)OP(=O)([O-])OP(=O)(O)OC[C@H]2O[C@@H](n3cnc4c(=O)[nH]c(N)nc43)[C@H](O)[C@@H]2O)c2nc(N)[nH]c(=O)c21
Relative peak area Correctly capped RNA / %: 64.7

QUERY: Bench note: what Relative peak area Correctly capped RNA did C[n+]1cn(CCS(=O)(=O)CCP(=O)(O)OP(=O)([O-])OP(=O)(O)OC[C@H]2O[C@@H](n3cnc4c(=O)[nH]c(N)nc43)[C@H](O)[C@@H]2O)c2nc(N)[nH]c(=O)c21 [Phosphonate Variant 6] show?
RESULT: 75.5

QUERY: What Relative peak area Correctly capped RNA value was documented for this compound, C[n+]1cn(C2OC(COP(=O)(O)OP(=O)([O-])OP(=O)(O)OCC3OC(n4cnc5c(=O)[nH]c(N)nc54)C(O)C3O)C(O)C2O)c2nc(N)[nH]c(=O)c21 (centres unmarked) [mCap, m7G(5′)ppp(5′)G, reference compound] ?
RESULT: 63.3

QUERY: Entry under review: C[n+]1cn(CCS(=O)(=O)CP(=O)(O)OP(=O)([O-])OP(=O)(O)OC[C@H]2O[C@@H](n3cnc4c(=O)[nH]c(N)nc43)[C@H](O)[C@@H]2O)c2nc(N)[nH]c(=O)c21 [Phosphonate Variant 12] . Reported Relative peak area Correctly capped RNA?
RESULT: 75.5

QUERY: // lookup Relative peak area Correctly capped RNA for C[n+]1cn(C[S+]([O-])CCCP(=O)(O)OP(=O)([O-])OP(=O)(O)OC[C@H]2O[C@@H](n3cnc4c(=O)[nH]c(N)nc43)[C@H](O)[C@@H]2O)c2nc(N)[nH]c(=O)c21 (some centres unmarked) [Phosphonate Variant 2]
RESULT: 76.9

Values from patent US20250002524A1
